Origin of the recorded values: patent US20230265187A1

Target: T1, his-tagged murine TIGIT (Acro Biosystems #TIT-M52E6) (murine, UniProt P86176 29-148, limits assumed)
T1 construct: Bought protein; also called mouse his-tagged TIGIT; not shown: his tag
T1 sequence (looked up): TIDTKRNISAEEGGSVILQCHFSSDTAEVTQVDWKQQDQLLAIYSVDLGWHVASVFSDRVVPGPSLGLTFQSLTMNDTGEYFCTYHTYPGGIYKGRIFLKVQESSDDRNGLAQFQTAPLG
Test: ELISA, coated His-TIGIT, 1 ug/ml

Binder: 43586p2.E08 (scFv, V domains shown) VH: EVQLLESGGDLVQPGGSLRLSCAASGFTFDDYVMSWVRQAPGKGLEWVSLINWNGDKTYYADSVKDRFTISRDNSKNTLYLQMNSLRAEDTAVYYCARHWIVFQYGLDVWGQGTTVTVSS VL: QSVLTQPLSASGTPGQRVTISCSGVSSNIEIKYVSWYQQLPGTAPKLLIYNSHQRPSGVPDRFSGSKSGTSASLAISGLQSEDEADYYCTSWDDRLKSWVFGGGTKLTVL
Elisa OD450: 2.03 OD450
--
Binder: 43586p1.2.E1 (scFv, V domains shown) VH: EVQLLESGGGLVQPGGSLRLSCAASGFTFSDYLMTWVRQAPGKELEWVSTITWDGDRTYYADSVKGRFTISRDNSKNTLYLQMNSLRAEDTAVYYCAKHWTVFQYGMDVWGQGTTVTVSS VL: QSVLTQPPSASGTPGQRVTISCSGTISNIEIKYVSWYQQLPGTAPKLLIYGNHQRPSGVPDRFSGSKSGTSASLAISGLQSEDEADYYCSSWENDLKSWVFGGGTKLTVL
Elisa OD450: 2.11 OD450
--
Binder: 43645p1.G5 (scFv, V domains shown) VH: EVQLLESGGGLVQPGGSLRLSCAASGFTFSSYYMSWVRQAPGKGLEWVSAISIFSGDSTYYADSVKGRFTISRDNSKNTLYLQMNSLRAEDTAVYYCAKSHTVLQYGMDVWGQGTTVTVSS VL: QSVLTQPPSASGTPGQRVTISCSGVTSNIRNYYVSWYQQLPGTAPKLLIYGNDQRPSGVPDRFSGSKSGTSASLAISGLQSEDEADYYCGTWDNTLNAWVFGGGTKLTVL
Elisa OD450: 1.01 OD450
